Please respond with reported IC50 for every item in the list.
# Tested on: HTT mRNA
# EXPERIMENT NOTES: RT-qPCR splicing assay, HTT canonical junction (CJ) and alternative junction (AJ) mRNA
# Type: cell-based, human
# CONDITION INFO: Homo sapiens; Table 5 panel; canonical junction qPCR; compound concentration having 50% response in CJ decrease; read-out: HTT IC50 (decrease in CJ mRNA levels)

| SMILES STRUCTURE | DATA VALUE |
| --- | --- |
| CCc1cn(C2CCNCC2)c(=O)c2c(F)cc(-c3cc(F)c4nc(C)cn4c3)cc12 | 1000 to 10000 nM |

For every item in the list below, what is its measured IC50?
1. Cc1cn2cc(-c3ccc4c(=O)n(C5CCNCC5)ncc4c3)cc(Cl)c2n1
2. Cn1cc2cc(-c3ccc4c(=O)n(C5CCNCC5)cnc4c3)cc(F)c2n1
3. Cc1cn2cc(-c3cc(F)c4c(=O)n(C5CCN(C)CC5)cnc4c3)cc(F)c2n1

["100 to 1000 nM", "100 to 1000 nM", "100 to 1000 nM"]
